Study system: T1, CEACAM1 (Sino Biological) (human, UniProt P13688 35-428, limits assumed)
T1 construct: may be the same as CEACAM1-HIS; also called hCEACAM1; biotinylated soluble CEACAM1
T1 sequence: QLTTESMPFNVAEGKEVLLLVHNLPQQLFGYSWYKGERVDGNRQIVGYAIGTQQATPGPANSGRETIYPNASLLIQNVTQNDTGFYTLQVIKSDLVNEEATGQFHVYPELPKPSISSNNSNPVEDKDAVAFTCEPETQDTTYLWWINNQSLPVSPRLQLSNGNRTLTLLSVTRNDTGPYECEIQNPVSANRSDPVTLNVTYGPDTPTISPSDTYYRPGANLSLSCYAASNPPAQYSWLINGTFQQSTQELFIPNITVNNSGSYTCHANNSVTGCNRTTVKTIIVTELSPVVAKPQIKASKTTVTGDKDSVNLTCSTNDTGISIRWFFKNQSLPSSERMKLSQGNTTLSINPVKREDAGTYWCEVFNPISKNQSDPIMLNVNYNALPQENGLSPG
Procedure summary: SPR single-cycle
Readout label: pKd
Answers are plain numbers, as −log10 of the molar value.

Previously resolved entries follow.
| Binder | Observed result |
| --- | --- |
| He14/L5 (antibody, IgG4, V domains shown, IgG4 S241P, kappa) VH: EVQLLESGGGLVQPGGSLRLSCAASGFSFSDYYLYWVRQAPGKGLEWVATISVGGGQTSYADSVKGRFTISRDNSKNTLYLQMNSLRAEDTAMYYCTRGLYYGPSWVAYWGQGTLVTVSS VL: DIVMTQSPDSLAVSLGERATINCKSSQSLLNSANQKNYLAWYQQKPGQPPKLLIYFASTRESGVPDRFSGSGSGTDFTLTISSLQAEDVAVYYCQSHYPFAFTFGGGTKVEIK | 6.99 |
| Parent VH/L6 (antibody, IgG4, V domains shown, IgG4 S241P, kappa) VH: EVQLLESGGGLVQPGGSLRLSCAASGFSFSDYYLYWVRQAPGKGLEWVATISVGGGQTSYADSVKGRFTISRDNSKNTLYLQMNSLRAEDTAMYYCTRGLYYGPAWFAYWGQGTLVTVSS VL: DIVMTQSPDSLAVSLGERATINCKSSQSLLNSANQKNYLAWYQQKPGQPPKLLIYFASTRESGVPDRFSGSGSGTDFTLTISSLQAEDVAVYYCQSHYPFSFTFGGGTKVEIK | 7.24 |

Now look at this entry.
Give recorded pKd. He3/L18 (antibody, IgG4, V domains shown, IgG4 S241P, kappa) VH: EVQLLESGGGLVQPGGSLRLSCAASGFSFSDYYLYWVRQAPGKGLEWVATISVGGGQTSYADSVKGRFTISRDNSKNTLYLQMNSLRAEDTAMYYCTRALTYGPAWLAYWGQGTLVTVSS VL: DIVMTQSPDSLAVSLGERATINCKSSQSLLNSANQKNYLAWYQQKPGQPPKLLIYFASTRESGVPDRFSGSGSGTDFTLTISSLQAEDVAVYYCQSHFPYPFTFGGGTKVEIK
7.09
